# TESTED_TARGET: Replicase polyprotein 1ab (Severe acute respiratory syndrome coronavirus 2)
# METHOD_SUMMARY: Inhibition of SARS-CoV-2 3CL protease expressed in Escherichia coli using Dabcyl-KTSAVLQSGFRKM-E(Edans)-NH2 as substrate preincubated for 30 mins followed by substrate addition and measured after 3 hrs
PARAMETER_MEASURED: pIC50
// field semantics: pIC50 = negative decimal log of concentration (mol/L)

// query pIC50 value for entry "Cn1nc(-c2ccc(C(F)(F)F)cc2)nc2c(=O)n(C)c(=O)cc1-2"
6.59
